target: T1, wild type human CD47 (Acro Biosystems, cat. no. CD7-H5227) (human, UniProt Q08722 19-139); test: SPR, IgG captured, CD47 in flow; exp 4;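 further: rates fitted from SPR association and dissociation curves, KD estimated from them, the other target is a CD47 C33G mutein, used to obtain true monovalent affinity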
T1 construct: Bought protein used as SPR analyte; also called Human CD47 wt; wild-type CD47
T1 sequence (Q08722 19-139 limits assumed): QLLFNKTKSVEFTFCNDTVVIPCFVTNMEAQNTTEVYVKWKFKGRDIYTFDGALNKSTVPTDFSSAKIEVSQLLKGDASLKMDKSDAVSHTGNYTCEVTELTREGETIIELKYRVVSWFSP
Classification field: Met = koff at or over 0.001 s⁻¹; Not met = koff under 0.001 s⁻¹.

108VH10 / 108VL10.M1 (antibody, V domains shown, 4D5-framework series; also called VH10 VL10.M1; straight-graft antibody) VH: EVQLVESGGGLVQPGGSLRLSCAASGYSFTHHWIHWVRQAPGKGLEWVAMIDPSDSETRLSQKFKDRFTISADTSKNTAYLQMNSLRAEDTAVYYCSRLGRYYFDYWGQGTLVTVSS VL: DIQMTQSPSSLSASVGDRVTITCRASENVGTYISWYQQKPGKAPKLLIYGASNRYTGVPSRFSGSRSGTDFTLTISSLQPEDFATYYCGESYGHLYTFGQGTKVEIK: Met
108VH4.M4-VL1.M1 (antibody, V domains shown, also called original humanized 108C10A6 antibody) VH: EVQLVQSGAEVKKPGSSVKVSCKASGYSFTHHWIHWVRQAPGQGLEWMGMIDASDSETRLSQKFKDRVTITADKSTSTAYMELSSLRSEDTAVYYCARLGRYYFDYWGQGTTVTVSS VL: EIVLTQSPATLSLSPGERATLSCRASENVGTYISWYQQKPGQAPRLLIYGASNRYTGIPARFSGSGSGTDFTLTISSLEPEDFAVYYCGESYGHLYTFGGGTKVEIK: Not met
chimeric antibody 108C10A6 (antibody, V domains shown, Chimeric antibody with mouse variable domains; captured through human Fc; also called VH / VL) VH: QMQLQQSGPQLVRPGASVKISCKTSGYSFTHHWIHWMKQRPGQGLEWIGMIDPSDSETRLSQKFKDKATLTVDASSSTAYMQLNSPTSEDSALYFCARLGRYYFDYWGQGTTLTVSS VL: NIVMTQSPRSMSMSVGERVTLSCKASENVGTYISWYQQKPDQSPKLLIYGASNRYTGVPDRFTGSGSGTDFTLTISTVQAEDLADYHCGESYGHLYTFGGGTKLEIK: Not met
108VH10.Mo / 108VL10.Me (antibody, V domains shown, 4D5-framework series; also called VH10.Mo VL10.Me) VH: EVQLVESGGGLVQPGGSLRLSCAASGFTFSHHWIHWVRQAPGKGLEWVAMIDASDSETRLSDSFKGRFTISADTSKNTAYLQMNSLRAEDTAVYYCSRLGRYYFDYWGQGTLVTVSS VL: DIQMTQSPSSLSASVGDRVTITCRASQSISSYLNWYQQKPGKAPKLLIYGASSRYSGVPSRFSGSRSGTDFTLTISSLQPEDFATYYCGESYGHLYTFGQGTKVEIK: Met
108VH10.Mp / 108VL10.Me (antibody, V domains shown, 4D5-framework series; constant regions not restated for this series; also called VH10.Mp VL10.Me) VH: EVQLVESGGGLVQPGGSLRLSCAASGFTFSHHWIHWVRQAPGKGLEWVAMIDASDSETRLVDSFKGRFTISADTSKNTAYLQMNSLRAEDTAVYYCSRLGRYYFDYWGQGTLVTVSS VL: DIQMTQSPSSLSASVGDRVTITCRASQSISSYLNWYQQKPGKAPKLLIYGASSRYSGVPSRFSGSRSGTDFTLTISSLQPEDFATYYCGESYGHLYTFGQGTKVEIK: Met
108VH10.Mq / 108VL10.Me (antibody, V domains shown, 4D5-framework series; constant regions not restated for this series; also called VH10.Mq VL10.Me) VH: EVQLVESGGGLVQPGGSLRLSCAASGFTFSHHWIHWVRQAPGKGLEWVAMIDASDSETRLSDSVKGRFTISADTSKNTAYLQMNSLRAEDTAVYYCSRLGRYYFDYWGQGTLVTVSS VL: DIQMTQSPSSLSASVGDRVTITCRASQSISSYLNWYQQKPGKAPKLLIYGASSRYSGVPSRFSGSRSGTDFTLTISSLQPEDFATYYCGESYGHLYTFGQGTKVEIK: Met
108VH10.Mr / 108VL10.Me (antibody, V domains shown, 4D5-framework series; constant regions not restated for this series; also called VH10.Mr VL10.Me) VH: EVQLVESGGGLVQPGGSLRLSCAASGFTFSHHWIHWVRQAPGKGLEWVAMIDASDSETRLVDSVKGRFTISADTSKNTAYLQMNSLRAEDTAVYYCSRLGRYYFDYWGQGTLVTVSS VL: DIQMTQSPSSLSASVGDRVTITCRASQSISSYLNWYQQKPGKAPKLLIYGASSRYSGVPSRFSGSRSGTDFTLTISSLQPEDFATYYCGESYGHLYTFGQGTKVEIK: Met
